# TESTED_ON: GABARAP R67E
# Sequence (chain, as listed by the source R67E R67E limits assumed): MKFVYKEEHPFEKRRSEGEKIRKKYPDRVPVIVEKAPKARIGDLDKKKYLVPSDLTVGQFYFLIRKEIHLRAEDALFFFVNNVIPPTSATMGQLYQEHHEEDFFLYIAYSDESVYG
# PROCEDURE_SUMMARY: ITC
READOUT_TYPE: Kd (µM)
Dear colleague, please return just the value in µM, with no unit written.

Lab note: measured Kd of PEDDWTEFSSEEIREARQAAASHAPS [AnkG LIR (AnkG WT peptide, rat 480 kD AnkG residues 1985-2010)] was 0.114
